Molecular target: UniProt Q9NR97
Sequence (Q9NR97 27-1041): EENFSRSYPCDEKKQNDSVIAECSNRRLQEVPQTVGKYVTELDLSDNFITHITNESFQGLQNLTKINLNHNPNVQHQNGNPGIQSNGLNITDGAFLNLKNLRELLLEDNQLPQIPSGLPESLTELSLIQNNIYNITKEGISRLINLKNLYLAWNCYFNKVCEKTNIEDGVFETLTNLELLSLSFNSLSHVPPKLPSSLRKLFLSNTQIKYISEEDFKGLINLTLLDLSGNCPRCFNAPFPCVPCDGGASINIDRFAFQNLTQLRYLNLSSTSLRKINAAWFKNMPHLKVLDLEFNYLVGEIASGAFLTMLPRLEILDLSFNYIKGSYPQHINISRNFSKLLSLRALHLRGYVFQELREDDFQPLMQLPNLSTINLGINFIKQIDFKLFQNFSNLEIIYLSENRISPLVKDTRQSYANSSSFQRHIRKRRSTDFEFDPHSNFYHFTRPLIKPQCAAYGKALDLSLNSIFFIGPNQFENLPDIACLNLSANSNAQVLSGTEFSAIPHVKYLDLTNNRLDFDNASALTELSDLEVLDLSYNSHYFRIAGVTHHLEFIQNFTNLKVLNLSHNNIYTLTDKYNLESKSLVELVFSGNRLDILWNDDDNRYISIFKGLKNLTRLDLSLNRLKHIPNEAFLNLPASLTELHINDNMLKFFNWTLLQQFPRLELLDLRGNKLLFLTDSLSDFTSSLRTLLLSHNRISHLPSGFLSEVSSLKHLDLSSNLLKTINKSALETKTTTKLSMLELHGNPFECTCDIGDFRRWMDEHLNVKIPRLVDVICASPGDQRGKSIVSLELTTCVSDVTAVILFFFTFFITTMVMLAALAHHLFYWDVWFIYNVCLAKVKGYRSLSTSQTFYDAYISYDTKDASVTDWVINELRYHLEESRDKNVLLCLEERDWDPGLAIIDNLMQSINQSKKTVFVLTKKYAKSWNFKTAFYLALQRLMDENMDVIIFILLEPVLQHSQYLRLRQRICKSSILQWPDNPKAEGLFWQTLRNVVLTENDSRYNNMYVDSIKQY
Experiment: TLR8 inhibition reporter assay (HEK-Blue cells, SEAP reporter)
Settings: HEK-Blue cells overexpressing human TLR8, stimulated with R848 15.9 μM, 22 hour incubation
pIC50: −log10 of the molar value.
Listing of entries alongside the reported pIC50.

Examples with their reported pIC50 follow.
>>> reported_result("COc1ccc(-c2c(C)c3cc(C4CCN(C5CCN(CC(C)C)CC5)CC4)ncc3n2C)cc1OC")
"< 4.30"
>>> reported_result("Cc1nc(-c2ccc(N3CCN(CCO)CC3)c(F)c2)cc2c1cc(-c1ccc(S(C)(=O)=O)cc1)n2C")
"< 4.60"

Lookup: Name the reported pIC50 value associated with the compound "COc1ccc(-c2c(C)[nH]c3cnc(C4CCN(C(=O)CCN5CCCC5)CC4)cc23)cc1OC"
Found: < 4.30
